assaySystem: T1, CD22 (antigen in the Biacore assay) (human, UniProt P20273 20-687, limits assumed)
T1 sequence: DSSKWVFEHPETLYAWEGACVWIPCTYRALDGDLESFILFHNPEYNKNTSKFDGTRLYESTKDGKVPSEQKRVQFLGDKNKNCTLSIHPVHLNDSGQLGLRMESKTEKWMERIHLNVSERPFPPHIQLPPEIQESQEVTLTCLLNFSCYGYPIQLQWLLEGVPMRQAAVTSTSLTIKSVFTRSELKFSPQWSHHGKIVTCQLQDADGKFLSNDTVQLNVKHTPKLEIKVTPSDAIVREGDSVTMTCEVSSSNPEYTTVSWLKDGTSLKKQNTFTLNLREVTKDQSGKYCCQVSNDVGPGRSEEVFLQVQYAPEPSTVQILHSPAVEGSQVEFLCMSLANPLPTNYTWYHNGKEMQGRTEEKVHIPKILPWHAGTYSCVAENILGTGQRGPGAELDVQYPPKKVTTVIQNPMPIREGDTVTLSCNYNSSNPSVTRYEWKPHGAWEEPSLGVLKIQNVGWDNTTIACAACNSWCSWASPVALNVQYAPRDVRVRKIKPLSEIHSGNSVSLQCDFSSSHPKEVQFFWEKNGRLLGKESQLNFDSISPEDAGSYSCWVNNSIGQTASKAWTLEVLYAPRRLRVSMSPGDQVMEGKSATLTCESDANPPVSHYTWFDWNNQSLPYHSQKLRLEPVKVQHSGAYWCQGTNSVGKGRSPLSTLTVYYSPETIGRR
measurementDescription: SPR (Biacore) at 37° C
Listed here: items and their measured kon.
Respond with the bare value in M⁻¹ s⁻¹.

binder: humanized LL2 L1 + H2 (antibody, V domains shown, Human IgG1 frameworks; also called H2L1) VH: QVQLQESGAEVKKPGASVKMSCKASGYTFTSYWLHWIRQAPGQRLEWIGYINPRNDYTKYSQKFQGRVTLTRDKSASTAYMELSSLRSEDTAVYYCARRDITTFYWGQGTTLTVSS VL: DIVLTQSPDSLAVSAGERVTMNCKSSQSVLYSANHKNYLAWYQQKPGQPPKLLIYWASTRESGVPDRFSGSGSGTDFTLTISSVQAEDVAIYYCHQYLSSWTFGGGTKLEIK
unitSpec: M⁻¹ s⁻¹
kon: 2.77e+06

State its kon: humanized LL2 L1 + H9 (antibody, V domains shown, Human IgG1 frameworks; also called H9L1) VH: QVQLVQSGAEVKKPGASVKVSCKASGYTFTSYWLHWVRQAPGQRLEWIGYINPRNDYTEYNQNFKDRVTITADTSASTAYMELSSLRSEDTAVYYCARRDITTFYWGQGTTLTVSS VL: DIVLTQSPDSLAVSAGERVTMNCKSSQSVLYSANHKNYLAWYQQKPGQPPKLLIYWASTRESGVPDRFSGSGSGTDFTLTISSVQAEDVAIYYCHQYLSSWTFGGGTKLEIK
133000
